Test system: recombinant truncated collagenase
Experiment: Bioassay: cleavage of immobilized peptide by recombinant truncated collagenase, fluorescence of supernatant
Type: biochemical
Settings: collagenase 10 nM, immobilized peptide 7.5 mg/mL, pH 7.5, 30-60 minutes; excitation 355 nm, emission 460 nm; mean of two measurements
Ends that are not written are not given here. * marks the point of attachment. Hcp = 3-(7-hydroxy-4-coumarinyl)propionyl, N-terminal fluorescent marker, O=C(CCc1cc(=O)oc2cc(O)ccc12)*; silane glass bead = not defined here; Ahx = NCCCCCC(=O)O
Readout Type: Mean Fluorescence Value ± Deviation

// worked examples, Mean Fluorescence Value ± Deviation included
INSERT INTO measurements (substance, test_result) VALUES
  ('IIIc (Hcp-GPLAMF; not fully specified (C-terminus); also: C-terminus linked via NH(CH2)3Si(OR)2O anchor to glass bead)', 5733.5),
  ('IIIe (Hcp-GPLAMF; not fully specified (C-terminus); also: C-terminus linked via NH(CH2)3Si(OR)2O anchor to glass bead)', 5838.5),
  ('IIId (Hcp-GPLAMF; not fully specified (C-terminus); also: C-terminus linked via NH(CH2)3Si(OR)2O anchor to glass bead)', 6157.0),
  ('IIIk (Hcp-APLALF; not fully specified (C-terminus); also: C-terminus linked via NH(CH2)3Si(OR)2O anchor to glass bead)', 3316.0);

(A) IIIo (Hcp-GPLAAF; not fully specified (C-terminus); also: C-terminus linked via NH(CH2)3Si(OR)2O anchor to glass bead)
(B) IIIj (Hcp-GPLAMF-{Ahx-Ahx-Ahx-Ahx-Ahx-Ahx-Ahx-Ahx-Ahx-Ahx-silane glass bead}; not fully specified; reading uncertain; also: C-terminus linked via NH(CH2)3Si(OR)2O anchor to glass bead)
Could you kindly indicate whether A or B has the higher Mean Fluorescence Value ± Deviation value? When you have decided, please share the label of that item.
B
(B: 3662.5, A: 328.1)

---

System: recombinant truncated collagenase
Assay: Bioassay: cleavage of immobilized peptide by recombinant truncated collagenase, fluorescence of supernatant
Type: biochemical
Conditions: collagenase 10 nM, immobilized peptide 7.5 mg/mL, pH 7.5, 30-60 minutes; excitation 355 nm, emission 460 nm; mean of two measurements
From the text: […]
Ends that are not written are not given here. * marks the point of attachment. Hcp = 3-(7-hydroxy-4-coumarinyl)propionyl, N-terminal fluorescent marker, O=C(CCc1cc(=O)oc2cc(O)ccc12)*
Readout Type: Mean Fluorescence Value ± Deviation

(P) IIIn (Hcp-GPLALF; not fully specified (C-terminus); also: C-terminus linked via NH(CH2)3Si(OR)2O anchor to glass bead)
(Q) IIIg (Hcp-GPLAMF; not fully specified (C-terminus); also: C-terminus linked via NH(CH2)3Si(OR)2O anchor to glass bead)
(R) IIIq (Hcp-AAALWAA; not fully specified (C-terminus); also: C-terminus linked via NH(CH2)3Si(OR)2O anchor to glass bead)
Put these in order: smallest Mean Fluorescence Value ± Deviation first, largest last. Please, when replying, give the labels in the order that was requested.
R, P, Q
(R: 379.5, P: 2964.5, Q: 5374.5)

---

Tested on: recombinant truncated collagenase
Assay: Bioassay: cleavage of immobilized peptide by recombinant truncated collagenase, fluorescence of supernatant
Format: biochemical
Settings: collagenase 10 nM, immobilized peptide 7.5 mg/mL, pH 7.5, 30-60 minutes; excitation 355 nm, emission 460 nm; mean of two measurements
Ends that are not written are not given here. * marks the point of attachment. Hcp = 3-(7-hydroxy-4-coumarinyl)propionyl, N-terminal fluorescent marker, O=C(CCc1cc(=O)oc2cc(O)ccc12)*; silane glass bead = not defined here; Ahx = NCCCCCC(=O)O
Readout Type: Mean Fluorescence Value ± Deviation

(A) IIIi (Hcp-GPLAMF-{Ahx-Ahx-Ahx-Ahx-Ahx-Ahx-Ahx-Ahx-Ahx-silane glass bead}; not fully specified; reading uncertain; also: C-terminus linked via NH(CH2)3Si(OR)2O anchor to glass bead)
(B) IIIf (Hcp-GPLAMF; not fully specified (C-terminus); also: C-terminus linked via NH(CH2)3Si(OR)2O anchor to glass bead)
Could you kindly indicate whether A or B has the higher Mean Fluorescence Value ± Deviation value? When you have decided, please share the label of that item.
B
(B: 7559.5, A: 4238.5)

---

Tested on: recombinant truncated collagenase
Assay: Bioassay: cleavage of immobilized peptide by recombinant truncated collagenase, fluorescence of supernatant
Format: biochemical
Conditions: collagenase 10 nM, immobilized peptide 7.5 mg/mL, pH 7.5, 30-60 minutes; excitation 355 nm, emission 460 nm; mean of two measurements
Ends that are not written are not given here. * marks the point of attachment. Hcp = 3-(7-hydroxy-4-coumarinyl)propionyl, N-terminal fluorescent marker, O=C(CCc1cc(=O)oc2cc(O)ccc12)*; silane glass bead = not defined here; Ahx = NCCCCCC(=O)O
Readout Type: Mean Fluorescence Value ± Deviation

INSERT INTO measurements (substance, readout_type, test_result) VALUES
  ('IIIl (Hcp-GALALF; not fully specified (C-terminus); also: C-terminus linked via NH(CH2)3Si(OR)2O anchor to glass bead)', 'Mean Fluorescence Value ± Deviation', 707.9),
  ('IIIh (Hcp-GPLAMF-{Ahx-Ahx-Ahx-Ahx-Ahx-Ahx-Ahx-Ahx-silane glass bead}; not fully specified; reading uncertain; also: C-terminus linked via NH(CH2)3Si(OR)2O anchor to glass bead)', 'Mean Fluorescence Value ± Deviation', 4723.5),
  ('IIIa (Hcp-GPLAMF; not fully specified (C-terminus); also: C-terminus linked via NH(CH2)3Si(OR)2O anchor to glass bead)', 'Mean Fluorescence Value ± Deviation', 2042.5);

(I) IIIm (Hcp-GPAALF; not fully specified (C-terminus); also: C-terminus linked via NH(CH2)3Si(OR)2O anchor to glass bead)
(II) IIIp (Hcp-GPLALA; not fully specified (C-terminus); also: C-terminus linked via NH(CH2)3Si(OR)2O anchor to glass bead)
Could you tell me which of I and II has the lower Mean Fluorescence Value ± Deviation reading? When you have decided, please share the label of that item.
II
